What fold change (FC) was measured for each of the following?
# TESTED_SYSTEM: Adenosine receptor A1 (Homo sapiens)
# Sequence (whole entry): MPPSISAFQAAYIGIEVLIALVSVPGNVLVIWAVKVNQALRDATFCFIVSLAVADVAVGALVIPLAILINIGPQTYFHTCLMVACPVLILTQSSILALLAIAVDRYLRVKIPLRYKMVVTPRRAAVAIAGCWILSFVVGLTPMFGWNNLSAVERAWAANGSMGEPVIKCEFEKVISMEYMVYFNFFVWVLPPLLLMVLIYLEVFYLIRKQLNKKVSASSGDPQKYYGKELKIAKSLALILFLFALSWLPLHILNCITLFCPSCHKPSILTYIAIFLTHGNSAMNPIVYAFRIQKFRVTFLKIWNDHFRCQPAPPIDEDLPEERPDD
# PROCEDURE_DETAILS: Binding affinity to human adenosine A1 receptor expressed in CHO cells assessed as fold Ki shift of CCPA at 10 uM after 90 mins by [3H]-CCPA displacement assay relative to control
# Type: cell-based
Numbers only.

Worked cases, fold change (FC) given:
# SMILES_DATA, fold change (FC)
data = [
    ("Nc1sc(-c2ccc(F)cc2)c(Cc2ccc(Cl)cc2)c1C(=O)c1ccc(Cl)cc1", 4.1),
    ("COc1ccc(Cc2c(-c3ccccc3)sc(N)c2C(=O)c2ccc(Cl)cc2)cc1C", 6.1),
    ("COc1ccc(-c2sc(N)c(C(=O)c3ccc(Cl)cc3)c2Cc2ccc(Cl)cc2)cc1", 3.9),
    ("CC(C)Oc1ccc(Cc2c(-c3ccccc3)sc(N)c2C(=O)c2ccc(Cl)cc2)cc1", 5.8),
    ("COc1ccccc1Cc1c(-c2ccccc2)sc(N)c1C(=O)c1ccc(Cl)cc1", 4.9),
]

I need fold change (FC) for every entry listed below, if you could help.
1. Nc1sc(-c2ccc(F)cc2)c(Cc2ccccc2)c1C(=O)c1ccc(Cl)cc1
2. Nc1sc(-c2ccc(Cl)cc2)c(Cc2ccccc2)c1C(=O)c1ccc(Cl)cc1
3. Nc1sc(-c2ccccc2)c(Cc2ccccc2)c1C(=O)c1ccc(Cl)cc1
4. CC(C)(C)Cc1c(-c2ccc(Cl)cc2)sc(N)c1C(=O)c1ccc(Cl)cc1
5. Nc1sc(-c2ccccc2)c(Cc2ccc(Cl)cc2)c1C(=O)c1ccc(Cl)cc1

Reply:
3.9
8.4
4.2
4
5.6

---

# TESTED_SYSTEM: Adenosine receptor A1 (Homo sapiens) (UniProt P30542)
# PROCEDURE_DETAILS: Positive allosteric enhancement of human cloned adenosine A1 receptor expressed in CHO cells assessed as inhibition of forskolin-induced cAMP accumulation at 100 nM using [3H]-cAMP by scintillation counting relative to control in presence of 1 pM of CCPA
# Format: functional, cell-based
QUANTITY_KIND: inhibition (%)
Give bare numbers, in %.

# SMILES_DATA, TESTED_SYSTEM, QUANTITY_KIND, UNIT_OF_MEASURE, VALUE_REPORTED
data = [
    ("COc1c(C)cc(Cc2c(-c3ccccc3)sc(N)c2C(=O)c2ccc(Cl)cc2)cc1C", "Adenosine receptor A1 (Homo sapiens) (UniProt P30542)", "inhibition", "%", 61),
    ("COc1cccc(Cc2sc(N)c(C(=O)c3ccc(Cl)cc3)c2-c2ccccc2)c1", "Adenosine receptor A1 (Homo sapiens) (UniProt P30542)", "inhibition", "%", 31),
    ("Nc1sc(Cc2ccc(OC(F)(F)F)cc2)c(-c2ccccc2)c1C(=O)c1ccc(Cl)cc1", "Adenosine receptor A1 (Homo sapiens) (UniProt P30542)", "inhibition", "%", 25),
    ("Nc1sc(-c2ccc(F)cc2)c(Cc2ccc(F)cc2)c1C(=O)c1ccc(Cl)cc1", "Adenosine receptor A1 (Homo sapiens) (UniProt P30542)", "inhibition", "%", 41),
]

Let us move to another entry and its inhibition.
Task item: Hi! What's the reported inhibition for `Nc1sc(-c2ccc(Cl)cc2)c(Cc2ccccc2)c1C(=O)c1ccc(Cl)cc1` on Adenosine receptor A1 (Homo sapiens) (UniProt P30542)?
Reply: 67

---

What fold change (FC) was measured for each of the following?
# TESTED_SYSTEM: Adenosine receptor A1 (Homo sapiens) (UniProt P30542)
# PROCEDURE_DETAILS: Binding affinity to human adenosine A1 receptor expressed in CHO cells assessed as fold Bmax shift of [3H]-CCPA at 10 uM after 90 mins by [3H]-CCPA binding assay relative to control
# Format: cell-based
Numbers only.

# SMILES_DATA, fold change (FC)
records = [
    ("COc1ccc(Cc2c(-c3ccccc3)sc(N)c2C(=O)c2ccc(Cl)cc2)c(OC)c1", 5.6),
    ("COc1ccc(Cc2c(-c3ccccc3)sc(N)c2C(=O)c2ccc(Cl)cc2)cc1", 9.4),
    ("Nc1sc(Cc2ccc(C(F)(F)F)cc2)c(-c2ccccc2)c1C(=O)c1ccc(Cl)cc1", 1.8),
    ("COc1ccc(Cc2sc(N)c(C(=O)c3ccc(Cl)cc3)c2-c2ccccc2)cc1C", 2.7),
]

Task item: Quick one: fold change (FC) for `Nc1sc(Cc2ccc(OC(F)(F)F)cc2)c(-c2ccccc2)c1C(=O)c1ccc(Cl)cc1` ?
Reply: 1.8

---

# TESTED_SYSTEM: Adenosine receptor A1 (Homo sapiens)
# PROCEDURE_DETAILS: Binding affinity to human adenosine A1 receptor expressed in CHO cells assessed as fold Ki shift of CCPA at 10 uM after 90 mins by [3H]-CCPA displacement assay relative to control
# Format: cell-based
QUANTITY_KIND: fold change (FC)
One number for each entry.

# SMILES_DATA, QUANTITY_KIND, VALUE_REPORTED
rows = [
    ("COc1cccc(Cc2sc(N)c(C(=O)c3ccc(Cl)cc3)c2-c2ccccc2)c1", "fold change (FC)", 1.9),
]

I need fold change (FC) for every entry listed below, if you could help.
1. Nc1sc(-c2ccccc2)c(Cc2cccc3ccccc23)c1C(=O)c1ccc(Cl)cc1
2. COc1ccc(Cc2c(-c3ccccc3)sc(N)c2C(=O)c2ccc(Cl)cc2)c(OC)c1
3. CCOc1ccc(Cc2c(-c3ccccc3)sc(N)c2C(=O)c2ccc(Cl)cc2)cc1
4. COc1ccc(-c2sc(N)c(C(=O)c3ccc(Cl)cc3)c2Cc2ccc(SC)cc2)cc1
5. COc1ccc(Cc2c(-c3ccccc3)sc(N)c2C(=O)c2ccc(Cl)cc2)cc1
6. Cc1ccc(Cc2c(-c3ccc(Cl)cc3)sc(N)c2C(=O)c2ccc(Cl)cc2)cc1
7. Nc1sc(-c2ccccc2)c(Cc2ccc(OC(F)(F)F)cc2)c1C(=O)c1ccc(Cl)cc1
8. CC(C)Oc1ccc(Cc2sc(N)c(C(=O)c3ccc(Cl)cc3)c2-c2ccccc2)cc1

Reply:
1: 4.3; 2: 4.2; 3: 8; 4: 6.1; 5: 8.9; 6: 7.2; 7: 6.6; 8: 2

I need fold change (FC) for every entry listed below, if you could help.
1. CSc1ccc(Cc2c(-c3ccc(F)cc3)sc(N)c2C(=O)c2ccc(Cl)cc2)cc1
2. COc1ccc(Cc2sc(N)c(C(=O)c3ccc(Cl)cc3)c2-c2ccccc2)cc1C
3. Nc1sc(Cc2cccc3ccccc23)c(-c2ccccc2)c1C(=O)c1ccc(Cl)cc1
4. Cc1ccc(Cc2c(-c3ccc(F)cc3)sc(N)c2C(=O)c2ccc(Cl)cc2)cc1
5. COc1cccc(Cc2c(-c3ccccc3)sc(N)c2C(=O)c2ccc(Cl)cc2)c1

Reply:
1. 5.2
2. 2.4
3. 1.4
4. 5.6
5. 6.9

I need fold change (FC) for every entry listed below, if you could help.
1. Nc1sc(-c2ccc(Cl)cc2)c(Cc2ccc(Cl)cc2)c1C(=O)c1ccc(Cl)cc1
2. COc1ccc(-c2sc(N)c(C(=O)c3ccc(Cl)cc3)c2Cc2ccccc2)cc1
3. Nc1sc(-c2ccc(Cl)cc2)c(CN2CCN(c3ccc(Cl)cc3)CC2)c1C(=O)c1ccc(Cl)cc1
4. COc1cc(Cc2c(-c3ccccc3)sc(N)c2C(=O)c2ccc(Cl)cc2)cc(OC)c1OC

Reply:
1: 11.7; 2: 3.5; 3: 8.7; 4: 3.8

From: ChEMBL document CHEMBL3612058
